Source of measurements: patent US7964624B1

# testedTarget: full-length hepatitis C viral protein NS3•4A (Hepatitis C virus genotype 1a, UniProt P27958)
# Construct: hexa-histidine (N); made in house; host or cells: Sf9 insect cells (baculovirus, pVL1392)
# procedureText: biochemical
# Design: species or system HCV sub-type strain 1a
# setupConditions: Enzyme Assay 2 (HCV NS3 Peptide Cleavage Assay) activity, apparent Ki class
Exercise: state measured Ki for each of the molecules provided.

# annotated cases, reported Ki shown
Lookup: Given the entry CCC[C@H](NC(=O)[C@@H]1C[C@]2(CC(c3cccc(Cl)c3)=NO2)CN1C(=O)[C@@H](NC(=O)OC1CCCC1)C(C)(C)C)C(=O)C(=O)NC1CC1 [Compound 369] , report its measured Ki.
Found: < 100 nM

Lookup: Given the entry CCC[C@H](NC(=O)[C@@H]1C[C@]2(CC(c3cc(Cl)c(OC)cc3OC)=NO2)CN1C(=O)[C@@H](NC(=O)OC(C)(C)C)C(C)(C)C)C(=O)C(=O)N1CCC1 [Compound 581] , report its measured Ki.
Found: < 100 nM

For every item in the list below, what is its measured Ki?
1. CCC[C@H](NC(=O)[C@@H]1C[C@]2(CC(c3cccc(Cl)c3)=NO2)CN1C(=O)[C@H](Cc1ccc(OC)cc1)NC(=O)CC1CCCCC1)C(=O)C(=O)NC1CC1 [Compound 213]
2. CC(C)(C)[C@H](NC(=O)[C@@H]1C[C@H]1c1ccccc1)C(=O)N1C[C@@]2(CC(c3cccc(Cl)c3)=NO2)C[C@H]1C(=O)N[C@@H](CC1CC1)C(=O)C(N)=O [Compound 485]
3. CNC(=O)C(=O)[C@H](CC1CC1)NC(=O)[C@@H]1C[C@]2(CC(c3cc(Cl)c(OC)cc3OC)=NO2)CN1C(=O)[C@@H](NC(=O)CC1CCCCC1)C(C)(C)C [Compound 657]
4. CCC[C@H](NC(=O)[C@@H]1C[C@]2(CC(c3cccc(Cl)c3)=NO2)CN1C(=O)[C@@H](CC(=O)NC1CCCCC1)C(C)C)C(=O)C(=O)NC1CC1 [Compound 21]
5. COc1ccc(Cl)cc1C1=NO[C@]2(C1)C[C@@H](C(=O)N[C@@H](CC1CC1)C(=O)C(N)=O)N(C(=O)[C@@H](NC(=O)CC1CCCCC1)C(C)(C)C)C2 [Compound 633]

Found:
1: > 500 nM; 2: < 100 nM; 3: < 100 nM; 4: > 500 nM; 5: < 100 nM
